Attribution: the supplement of paper PMC6555819

- Tested on: PXR:RXRa (NR concentration 270 nM, RXRa partner concentration 90 nM)
- TEST METHOD NOTES: PBM binding z-score (relative to random genomic background probes); higher = stronger binding; sequences stand for … in GC…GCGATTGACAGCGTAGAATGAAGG
Each record here notes measured PBM binding z-score.

biopolymer_sequence=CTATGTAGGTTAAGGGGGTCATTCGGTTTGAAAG measure="PBM binding z-score" recorded_result=5.97
biopolymer_sequence=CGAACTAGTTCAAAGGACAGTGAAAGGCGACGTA measure="PBM binding z-score" recorded_result=0.27
biopolymer_sequence=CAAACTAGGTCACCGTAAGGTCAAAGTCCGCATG measure="PBM binding z-score" recorded_result=6.21

get_value(item= "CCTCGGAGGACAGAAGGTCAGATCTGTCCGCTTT" , readout=PBM binding z-score) returns 1.65

get_value(item= "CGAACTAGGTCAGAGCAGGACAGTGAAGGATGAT" , readout=PBM binding z-score) returns 1.15

get_value(item= "CCGAGTAGGTTACGCGGGGGCATTCAGTGCGAAT" , readout=PBM binding z-score) returns 5.72

get_value(item= "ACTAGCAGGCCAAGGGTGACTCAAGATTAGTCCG" , readout=PBM binding z-score) returns -0.0749

get_value(item= "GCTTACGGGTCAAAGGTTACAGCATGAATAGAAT" , readout=PBM binding z-score) returns 6.45

get_value(item= "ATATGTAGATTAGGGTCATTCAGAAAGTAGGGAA" , readout=PBM binding z-score) returns 3.84

---

Each record here notes measured PBM binding z-score.
- System: PPARg:RXRa 90nM:30nM, anti-RXR (NR concentration 90 nM, RXRa partner concentration 30 nM)
- TEST METHOD NOTES: PBM binding z-score (relative to random genomic background probes); higher = stronger binding; sequences stand for … in GC…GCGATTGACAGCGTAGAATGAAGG
Provide a numeric answer; units are not to be included.

biopolymer_sequence=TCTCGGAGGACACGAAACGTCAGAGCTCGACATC assayed_system="PPARg:RXRa 90nM:30nM, anti-RXR (NR concentration 90 nM, RXRa partner concentration 30 nM)" recorded_result=1.4
biopolymer_sequence=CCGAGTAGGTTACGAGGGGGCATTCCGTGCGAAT assayed_system="PPARg:RXRa 90nM:30nM, anti-RXR (NR concentration 90 nM, RXRa partner concentration 30 nM)" recorded_result=1.69
biopolymer_sequence=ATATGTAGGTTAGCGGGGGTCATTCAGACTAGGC assayed_system="PPARg:RXRa 90nM:30nM, anti-RXR (NR concentration 90 nM, RXRa partner concentration 30 nM)" recorded_result=6.07

get_value(item= "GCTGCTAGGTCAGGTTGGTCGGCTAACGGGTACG" , readout=PBM binding z-score) returns 0.235

get_value(item= "ATCGAAAGGTCGTGAGGTGAGTTTACAGAAAGGC" , readout=PBM binding z-score) returns 3.05

get_value(item= "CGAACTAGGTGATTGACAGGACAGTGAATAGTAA" , readout=PBM binding z-score) returns 1.06

get_value(item= "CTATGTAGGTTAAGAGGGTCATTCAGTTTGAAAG" , readout=PBM binding z-score) returns 4.99

get_value(item= "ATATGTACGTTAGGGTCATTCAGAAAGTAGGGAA" , readout=PBM binding z-score) returns 2.07

get_value(item= "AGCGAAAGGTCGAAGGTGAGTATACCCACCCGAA" , readout=PBM binding z-score) returns 4.25

get_value(item= "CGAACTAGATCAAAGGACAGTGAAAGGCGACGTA" , readout=PBM binding z-score) returns 4.58

get_value(item= "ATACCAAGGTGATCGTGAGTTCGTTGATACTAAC" , readout=PBM binding z-score) returns -0.0417

get_value(item= "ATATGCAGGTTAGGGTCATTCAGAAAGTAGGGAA" , readout=PBM binding z-score) returns 3.4

get_value(item= "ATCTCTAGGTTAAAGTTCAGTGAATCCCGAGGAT" , readout=PBM binding z-score) returns 9.27

get_value(item= "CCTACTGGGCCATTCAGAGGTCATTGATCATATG" , readout=PBM binding z-score) returns 2.26

---

- System: THRa:RXRa (NR concentration 90 nM, RXRa partner concentration 90 nM)
- TEST METHOD NOTES: PBM binding z-score (relative to random genomic background probes); higher = stronger binding; sequences stand for … in GC…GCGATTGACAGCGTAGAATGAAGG
Lab note: compare PBM binding z-score against 3. Equal or greater, write rule met. Smaller, write rule not met.

Previously resolved entries follow.
biopolymer_sequence=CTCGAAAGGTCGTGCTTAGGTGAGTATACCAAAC assayed_system="THRa:RXRa (NR concentration 90 nM, RXRa partner concentration 90 nM)" class_name="rule met"
biopolymer_sequence=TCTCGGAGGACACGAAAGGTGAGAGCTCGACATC assayed_system="THRa:RXRa (NR concentration 90 nM, RXRa partner concentration 90 nM)" class_name="rule not met"
biopolymer_sequence=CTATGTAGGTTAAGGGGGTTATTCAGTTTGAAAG assayed_system="THRa:RXRa (NR concentration 90 nM, RXRa partner concentration 90 nM)" class_name="rule not met"
biopolymer_sequence=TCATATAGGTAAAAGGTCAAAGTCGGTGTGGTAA assayed_system="THRa:RXRa (NR concentration 90 nM, RXRa partner concentration 90 nM)" class_name="rule met"
biopolymer_sequence=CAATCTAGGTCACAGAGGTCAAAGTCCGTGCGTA assayed_system="THRa:RXRa (NR concentration 90 nM, RXRa partner concentration 90 nM)" class_name="rule met"
biopolymer_sequence=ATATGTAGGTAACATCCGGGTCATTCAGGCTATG assayed_system="THRa:RXRa (NR concentration 90 nM, RXRa partner concentration 90 nM)" class_name="rule met"
biopolymer_sequence=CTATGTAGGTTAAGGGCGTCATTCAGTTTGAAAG assayed_system="THRa:RXRa (NR concentration 90 nM, RXRa partner concentration 90 nM)" class_name="rule not met"
biopolymer_sequence=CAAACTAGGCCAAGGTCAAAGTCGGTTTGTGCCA assayed_system="THRa:RXRa (NR concentration 90 nM, RXRa partner concentration 90 nM)" class_name="rule met"
biopolymer_sequence=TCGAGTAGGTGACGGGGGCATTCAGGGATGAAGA assayed_system="THRa:RXRa (NR concentration 90 nM, RXRa partner concentration 90 nM)" class_name="rule met"
biopolymer_sequence=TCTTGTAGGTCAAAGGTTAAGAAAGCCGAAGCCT assayed_system="THRa:RXRa (NR concentration 90 nM, RXRa partner concentration 90 nM)" class_name="rule met"

Asked: Form field: PBM binding z-score at least 3? Entry: "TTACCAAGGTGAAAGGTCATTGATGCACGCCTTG"
Given back: rule met

Asked: Form field: PBM binding z-score at least 3? Entry: "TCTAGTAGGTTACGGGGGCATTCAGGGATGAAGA"
Given back: rule met

Asked: Form field: PBM binding z-score at least 3? Entry: "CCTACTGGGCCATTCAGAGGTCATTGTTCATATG"
Given back: rule met

Asked: Form field: PBM binding z-score at least 3? Entry: "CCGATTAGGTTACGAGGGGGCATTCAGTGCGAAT"
Given back: rule met

Asked: Form field: PBM binding z-score at least 3? Entry: "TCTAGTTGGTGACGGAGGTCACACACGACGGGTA"
Given back: rule met

Asked: Form field: PBM binding z-score at least 3? Entry: "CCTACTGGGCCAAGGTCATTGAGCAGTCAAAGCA"
Given back: rule met

Asked: Form field: PBM binding z-score at least 3? Entry: "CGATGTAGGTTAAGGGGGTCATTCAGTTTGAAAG"
Given back: rule met

Asked: Form field: PBM binding z-score at least 3? Entry: "CGTGCAAGGTCAGAGAGGTCAGTGAATGCCGAGT"
Given back: rule met

Asked: Form field: PBM binding z-score at least 3? Entry: "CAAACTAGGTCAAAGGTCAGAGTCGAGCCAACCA"
Given back: rule met

Asked: Form field: PBM binding z-score at least 3? Entry: "TCTGCTATGTCAACGATGGTCAGCTAATCTGCTA"
Given back: rule not met

Asked: Form field: PBM binding z-score at least 3? Entry: "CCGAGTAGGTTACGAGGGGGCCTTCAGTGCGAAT"
Given back: rule not met

Asked: Form field: PBM binding z-score at least 3? Entry: "CCGAGTAGGGTACGAGGGGGCATTCAGTGCGAAT"
Given back: rule not met

---

- Test system: RXRa DBDmut IVT, anti-RXR (DBD mutation: RXRa K156A/R161A, NR concentration 90 nM)
- TEST METHOD NOTES: PBM binding z-score (relative to random genomic background probes); higher = stronger binding; sequences stand for … in GC…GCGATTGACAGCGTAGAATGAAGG
Group membership follows PBM binding z-score per the scheme interval 1 = under 0.4, interval 2 = from 0.4 up to 2, interval 3 = 2 and over

biopolymer_sequence=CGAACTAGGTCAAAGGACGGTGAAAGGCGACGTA assayed_system="RXRa DBDmut IVT, anti-RXR (DBD mutation: RXRa K156A/R161A, NR concentration 90 nM)" class_name="interval 2"
biopolymer_sequence=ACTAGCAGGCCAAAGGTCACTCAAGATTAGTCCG assayed_system="RXRa DBDmut IVT, anti-RXR (DBD mutation: RXRa K156A/R161A, NR concentration 90 nM)" class_name="interval 2"
biopolymer_sequence=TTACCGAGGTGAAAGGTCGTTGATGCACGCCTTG assayed_system="RXRa DBDmut IVT, anti-RXR (DBD mutation: RXRa K156A/R161A, NR concentration 90 nM)" class_name="interval 2"

Asked: Please classify: "CGAACTAGGTCAAAGGTCAGTGAAAGGCGACGTA"
Given back: interval 3

Asked: Please classify: "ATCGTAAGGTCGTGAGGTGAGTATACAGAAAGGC"
Given back: interval 3

Asked: Please classify: "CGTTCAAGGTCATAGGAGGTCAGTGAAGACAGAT"
Given back: interval 3

Asked: Please classify: "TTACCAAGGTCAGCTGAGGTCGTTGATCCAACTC"
Given back: interval 3
